These measurements were taken from patent US20240139221A1.

assay: Approximate solubility in solvents at 25° C. and 50° C., visual observation; type: physicochemical; details: 50 °C, organic solvent or mixture, thermodynamic from solid, Table 14, DCM, 50° C., read-out: Solubility (mg/mL) 50° C.
observation-type: solubility

Using the record for CCOC(=O)[C@H](C)NP(=O)(COCCn1cnc2c(OC)nc(N)nc21)OCc1ccccc1.O=C(O)/C=C/C(=O)O (mixture of isomers) [Compound I monofumarate] , report its solubility.
< 10 mg/mL

====

assay: Solubility in buffers, water and simulated vaginal fluid at 37° C.; settings: 37 °C, pH 4.5, aqueous buffer, thermodynamic from solid
Quick list: solubility at 0.5 h per entry.

Using the record for CCOC(=O)[C@H](C)N[P@@](=O)(COCCn1cnc2c(OC)nc(N)nc21)OCc1ccccc1.O=C(O)/C=C/C(=O)O , report its solubility at 0.5 h.
> 2000 µg/mL

Using the record for CCOC(=O)[C@H](C)NP(=O)(COCCn1cnc2c(OC)nc(N)nc21)OCc1ccccc1.O=C(O)/C=C/C(=O)O (mixture of isomers) [Compound I monofumarate] , report its solubility at 0.5 h.
> 2000 µg/mL

====

experiment: Solubility in buffers, water and simulated vaginal fluid at 37° C.; conditions: 37 °C, pH 6.8, aqueous buffer, thermodynamic from solid
Quick list: solubility at 2 h per entry.

compound	solubility at 2 h
CCOC(=O)[C@H](C)N[P@@](=O)(COCCn1cnc2c(OC)nc(N)nc21)OCc1ccccc1.O=C(O)/C=C/C(=O)O [Compound II]	> 2000 µg/mL

Consider the additional compound presented here.
Using the record for CCOC(=O)[C@H](C)NP(=O)(COCCn1cnc2c(OC)nc(N)nc21)OCc1ccccc1.O=C(O)/C=C/C(=O)O (mixture of isomers) [Compound I monofumarate] , report its solubility at 2 h.
> 2000 µg/mL

====

experiment: physchem; conditions: 37 °C, pH 4.5, aqueous buffer, thermodynamic from solid
observation-type: solubility

Using the record for CCOC(=O)[C@H](C)N[P@](=O)(COCCn1cnc2c(OC)nc(N)nc21)OCc1ccccc1 (single isomer, unassigned) [Compound III, monofumarate] , report its solubility.
> 2000 µg/mL

====

assay: physchem; details: 37 °C, pH 3, aqueous buffer, thermodynamic from solid
observation-type: solubility

Using the record for CCOC(=O)[C@H](C)N[P@](=O)(COCCn1cnc2c(OC)nc(N)nc21)OCc1ccccc1 (single isomer, unassigned) [Compound III, monofumarate] , report its solubility.
> 2000 µg/mL

====

experiment: Solubility in buffers, water and simulated vaginal fluid at 37° C.; conditions: simulated vaginal fluid, 37 °C, pH 4.2, fassgf or other biorelevant, thermodynamic from solid
observation-type: solubility at 0.5 h

Using the record for CCOC(=O)[C@H](C)NP(=O)(COCCn1cnc2c(OC)nc(N)nc21)OCc1ccccc1 (stereo partly shown) [Compound I] , report its solubility at 0.5 h.
> 2000 µg/mL

====

assay: physchem; details: 37 °C, water, thermodynamic from solid
observation-type: solubility

Using the record for CCOC(=O)[C@H](C)N[P@](=O)(COCCn1cnc2c(OC)nc(N)nc21)OCc1ccccc1 (single isomer, unassigned) [Compound III, monofumarate] , report its solubility.
> 2000 µg/mL

====

Assay: Solubility in buffers, water and simulated vaginal fluid at 37° C.
Settings: 37 °C, pH 3, aqueous buffer, thermodynamic from solid
Protocol: About 4 mg of Compound I Pattern 1 was added into 2 mL of buffer solution. Solubility was tested in five media, pH 3.0 citrate buffer, pH 4.5 acetate buffer, pH 6.8 phosphate buffer, water, simulated vaginal fluid (pH 4.2) at 37° C. for 0.5 h and 2 h. The salt amount used is equivalent to 10 mg anhydrous free base. […] The obtained clear solutions were analyzed by pH meter for pH, and solubility was determined by observation.
observation-type: solubility at 2 h

molecule	observation-type	result
CCOC(=O)[C@H](C)N[P@@](=O)(COCCn1cnc2c(OC)nc(N)nc21)OCc1ccccc1.O=C(O)/C=C/C(=O)O [Compound II]	solubility at 2 h	> 2000 µg/mL

Consider the additional molecule presented here.
Using the record for CCOC(=O)[C@H](C)NP(=O)(COCCn1cnc2c(OC)nc(N)nc21)OCc1ccccc1.O=C(O)/C=C/C(=O)O (mixture of isomers) [Compound I monofumarate] , report its solubility at 2 h.
> 2000 µg/mL
